- measurement description: Plasma pharmacokinetics, single ascending dose
- Format: in vivo, human
- experimental conditions: male, human, plasma, po, 4 mg

| molecule | Cmax [ng/mL] |
| --- | --- |
| Nc1nnc(CN[C@@H]2C[C@H]2c2ccc(OCc3ccccc3)cc2)o1 [vafidemstat] | 38 |

* * *

- measurement description: CSF pharmacokinetics substudy
- Format: in vivo, human
- experimental conditions: male, human, CSF / unbound plasma, oral, 2 mg

| sample smiles | Kp at 12 h |
| --- | --- |
| Nc1nnc(CN[C@@H]2C[C@H]2c2ccc(OCc3ccccc3)cc2)o1 | 0.92 |

* * *

- measurement description: Plasma pharmacokinetics, multiple ascending dose
- Assay type: in vivo, human
- experimental conditions: both, human, plasma, oral, 1.5 mg/day, t½, MAD 1.5 mg/day, 5 days, young; mean (CV %)

| sample smiles | half-life (h) |
| --- | --- |
| Nc1nnc(CN[C@@H]2C[C@H]2c2ccc(OCc3ccccc3)cc2)o1 | 22 |

* * *

- measurement description: Plasma pharmacokinetics, multiple ascending dose
- Format: in vivo, human
- experimental conditions: both, human, plasma, oral, 0.6 mg/day, t½, MAD 0.6 mg/day, 5 days, young; mean (CV %)
readout label: half-life (h)

| compound | readout label | units | result |
| --- | --- | --- | --- |
| Nc1nnc(CN[C@@H]2C[C@H]2c2ccc(OCc3ccccc3)cc2)o1 [vafidemstat] | half-life | h | 22 |

* * *

- measurement description: Plasma pharmacokinetics, multiple ascending dose
- Type: in vivo, human
- experimental conditions: both, human, plasma, oral, 0.6 mg/day

| sample smiles | Tmax (h) |
| --- | --- |
| Nc1nnc(CN[C@@H]2C[C@H]2c2ccc(OCc3ccccc3)cc2)o1 | 2.25 |

* * *

- measurement description: Plasma pharmacokinetics, single ascending dose
- Type: in vivo, human
- experimental conditions: male, human, plasma, po, 2.5 mg

| sample smiles | half-life (h) |
| --- | --- |
| Nc1nnc(CN[C@@H]2C[C@H]2c2ccc(OCc3ccccc3)cc2)o1 | 25 |

* * *

- measurement description: Plasma pharmacokinetics, multiple ascending dose
- Assay type: in vivo, human
- experimental conditions: both, human, plasma, oral, 0.2 mg/day, AUC0–t,ss (D5), MAD 0.2 mg/day, day 5, young; mean (CV %)

| sample smiles | units | AUC(0-t) |
| --- | --- | --- |
| Nc1nnc(CN[C@@H]2C[C@H]2c2ccc(OCc3ccccc3)cc2)o1 | ng·h/mL | 37.7 |

* * *

- measurement description: Plasma pharmacokinetics, multiple ascending dose
- Format: in vivo, human
- experimental conditions: human, plasma, oral, 2.5 mg/day, Cmax (D1), MAD older adult 2.5 mg/day, day 1; mean (CV %)
readout label: Cmax (ng/mL)

| sample smiles | result |
| --- | --- |
| Nc1nnc(CN[C@@H]2C[C@H]2c2ccc(OCc3ccccc3)cc2)o1 | 24.3 |

* * *

- measurement description: CSF pharmacokinetics substudy
- Type: in vivo, human
- experimental conditions: male, human, CSF / unbound plasma, oral, 2 mg

| sample smiles | Kp at 2 h |
| --- | --- |
| Nc1nnc(CN[C@@H]2C[C@H]2c2ccc(OCc3ccccc3)cc2)o1 | 0.78 |

* * *

- measurement description: Plasma pharmacokinetics, multiple ascending dose
- Format: in vivo, human
- experimental conditions: both, human, plasma, oral, 0.6 mg/day, AUC0–t (D1), MAD 0.6 mg/day, day 1, young; mean (CV %)
readout label: AUC(0-t) (ng·h/mL)

| sample smiles | readout label | units | result |
| --- | --- | --- | --- |
| Nc1nnc(CN[C@@H]2C[C@H]2c2ccc(OCc3ccccc3)cc2)o1 | AUC(0-t) | ng·h/mL | 50.6 |
